- system.under.test: BRD4 (BDI_K57-E168) (Homo sapiens)
- Construct: BD1: amino acids K57-E168
- test.protocol: TR-FRET bromodomain binding assay, first bromodomain of BRD4
- condition.label: His-tagged BD1, 100 nM Alexa647 probe; TR-FRET protocol A-E given per row
Could you mark each record TRUE if its Ki falls strictly under 60 nM, and FALSE if it equals or exceeds it?

# example entries with known answers
                        structure_as_smiles  category
0  COc1ccc(Oc2cccc(CNc3ccc(Oc4ccc(F)cc4F)c(-c4cn(C)c5c(=O)[nH]ccc45)c3)c2)cc1     FALSE
1  CCS(=O)(=O)c1ccc(Oc2ccccc2C#N)c(-c2cn(C)c3c(=O)[nH]ccc23)c1      TRUE

Could you now look at the following compound, please?
q: Record Cn1cc(-c2cc(NC(=O)CCCOc3ccccc3)ccc2Oc2ccc(F)cc2F)c2cc[nH]c(=O)c21 : is its Ki strictly below 60 nM?
a: FALSE

====

- system.under.test: BRD4 (BDI_K57-E168) (Homo sapiens, UniProt O60885)
- Construct: BD1: amino acids K57-E168
- test.protocol: TR-FRET bromodomain binding assay, first bromodomain of BRD4
- condition.label: His-tagged BD1, 100 nM Alexa647 probe; TR-FRET protocol A-E given per row
Below, each entry is listed with its recorded Ki.
Unit nM implied. Number only.

Sample records with Ki:
>>> df
                        structure_as_smiles                         system_under_test  metric  quantitative_result
0  Cn1cc(-c2cc(S(C)(=O)=O)ccc2OCCc2ccccc2)c2cc[nH]c(=O)c21  BRD4 (BDI_K57-E168) (Homo sapiens, UniProt O60885)      Ki                   52
1  Cn1cc(-c2cc(S(N)(=O)=O)ccc2Oc2ccc(F)cc2F)c2cc[nH]c(=O)c21  BRD4 (BDI_K57-E168) (Homo sapiens, UniProt O60885)      Ki                   47
2  Cn1cc(-c2cc(S(C)(=O)=O)ccc2OCCC23CC4CC(CC(C4)C2)C3)c2cc[nH]c(=O)c21  BRD4 (BDI_K57-E168) (Homo sapiens, UniProt O60885)      Ki                  416

Next:
q: Answer with the recorded Ki for the molecule listed here: CC(C)CCNCc1ccc(Oc2ccc(F)cc2F)c(-c2cn(C)c3c(=O)[nH]ccc23)c1
a: 776

====

- system.under.test: BRD4 (BDI_K57-E168) (Homo sapiens, UniProt O60885)
- Construct: BD1: amino acids K57-E168
- test.protocol: TR-FRET bromodomain binding assay, first bromodomain of BRD4
- condition.label: His-tagged BD1, 100 nM Alexa647 probe; TR-FRET protocol A-E given per row
- Description: A time-resolved fluorescence resonance energy transfer (TR-FRET) assay was used to determine the affinities of compounds of the Examples listed in Table 1 for each bromodomain of BRD4. His-tagged first (BD1: amino acids K57-E168) and second (BD2: amino acids E352-E168) bromodomains of BRD4 were expressed and purified. […] After a one-hour equilibration at room temperature, TR-FRET ratios were determined using an Envision multilabel plate reader (Ex 340, Em 495/520). […]
metric: Ki (nM)
Unit nM implied. Number only.

q: Supply Ki measured with BRD4 (BDI_K57-E168) (Homo sapiens, UniProt O60885) for CC(C)S(=O)(=O)Nc1ccc(Oc2ccc(F)cc2F)c(-c2cn(C)c3c(=O)[nH]ccc23)c1 .
a: 26

q: Supply Ki measured with BRD4 (BDI_K57-E168) (Homo sapiens, UniProt O60885) for Cc1cc(CC(=O)Nc2ccc(Oc3ccc(F)cc3F)c(-c3cn(C)c4c(=O)[nH]ccc34)c2)nn1C .
a: 11

q: Supply Ki measured with BRD4 (BDI_K57-E168) (Homo sapiens, UniProt O60885) for Cc1c[nH]c(=O)c2c1c(-c1cc(S(C)(=O)=O)ccc1OCCC1CC1)cn2C .
a: 127

====

- system.under.test: BRD4 (BDII_E352-M457) (Homo sapiens, UniProt O60885)
- Construct: proliferation; Protocol
- test.protocol: TR-FRET bromodomain binding assay, second bromodomain of BRD4
- condition.label: His-tagged BD2, 30 nM Alexa647 probe; TR-FRET protocol A-E given per row
- Description: A time-resolved fluorescence resonance energy transfer (TR-FRET) assay was used to determine the affinities of compounds of the Examples listed in Table 1 for each bromodomain of BRD4. His-tagged first (BD1: amino acids K57-E168) and second (BD2: amino acids E352-E168) bromodomains of BRD4 were expressed and purified. An Alexa647-labeled BET-inhibitor was used as the fluorescent probe in the assay. […]
Could you mark each record yes (1) if its Ki falls strictly under 90 nM, and no (0) if it equals or exceeds it?

>>> df
                        structure_as_smiles                         system_under_test  category
0  Cn1cc(-c2cc(S(C)(=O)=O)ccc2OCC2CCOCC2)c2cc[nH]c(=O)c21  BRD4 (BDII_E352-M457) (Homo sapiens, UniProt O60885)   yes (1)
1  CCS(=O)(=O)Nc1ccc(Oc2ccc(F)cc2F)c(-c2cn(C)c3c(=O)[nH]c(C(=O)NCCN4CCOCC4)cc23)c1  BRD4 (BDII_E352-M457) (Homo sapiens, UniProt O60885)   yes (1)
2  Cn1cc(-c2cc(NCc3ccc(C#N)cc3)ccc2Oc2ccc(F)cc2F)c2cc[nH]c(=O)c21  BRD4 (BDII_E352-M457) (Homo sapiens, UniProt O60885)    no (0)

q: Record Cc1ccc(CC(=O)Nc2ccc(Oc3ccc(F)cc3F)c(-c3cn(C)c4c(=O)[nH]ccc34)c2)cn1 : is its Ki strictly below 90 nM?
a: yes (1)

q: Record CCS(=O)(=O)Nc1ccc(OCC2CC2)c(-c2cn(C)c3c(=O)[nH]ccc23)c1C : is its Ki strictly below 90 nM?
a: no (0)

q: Record CCS(=O)(=O)c1ccc(Oc2ccc(C#N)cc2OC)c(-c2cn(C)c3c(=O)[nH]ccc23)c1 : is its Ki strictly below 90 nM?
a: yes (1)

q: Record CCS(=O)(=O)c1ccc(Oc2ccc(Cl)c(Cl)c2)c(-c2cn(C)c3c(=O)[nH]ccc23)c1 : is its Ki strictly below 90 nM?
a: yes (1)

====

Below, each entry is listed with its recorded pKi.
- system.under.test: BRD4 (BDI_K57-E168) (Homo sapiens)
- Construct: BD1: amino acids K57-E168; made in house
- test.protocol: TR-FRET bromodomain binding assay, first bromodomain of BRD4
- condition.label: His-tagged BD1, 100 nM Alexa647 probe; TR-FRET protocol A-E given per row
Hey, just a heads up that pKi is the negative log base 10 of the concentration in molar.

Sample records with pKi:
>>> print(df.to_string())
                        structure_as_smiles  metric  quantitative_result
0  CCS(=O)(=O)c1ccc(Oc2cncnc2)c(-c2cn(C)c3c(=O)[nH]ccc23)c1     pKi                 6.54
1  CCS(=O)(=O)Cc1ccc(Oc2ccc(F)cc2F)c(-c2cn(C)c3c(=O)[nH]ccc23)c1     pKi                 8.49
2  Cn1cc(-c2cc(NC(=O)Cc3cccc(Oc4ccccc4)c3)ccc2Oc2ccc(F)cc2F)c2cc[nH]c(=O)c21     pKi                 5.75
3  Cn1cc(-c2cc(S(C)(=O)=O)ccc2Oc2ccc(C(C)(C)C)cc2)c2cc[nH]c(=O)c21     pKi                 6.45
4  CN(C)S(=O)(=O)Cc1ccc(Oc2ccc(F)cc2F)c(-c2cn(C)c3c(=O)[nH]ccc23)c1     pKi                 8.66

q: Supply pKi measured with BRD4 (BDI_K57-E168) (Homo sapiens) for Cn1cc(-c2cc(S(C)(=O)=O)ccc2OCC(F)(F)C(F)(F)F)c2cc[nH]c(=O)c21 .
a: 7.44

q: Supply pKi measured with BRD4 (BDI_K57-E168) (Homo sapiens) for CCS(=O)(=O)Nc1ccc(Oc2ccc(F)cc2F)c(-c2cn(C)c3c(=O)[nH]c(C4CCN(S(=O)(=O)CC)CC4)cc23)c1 .
a: 9.42

====

- System: breast cancer cell line MX-1
- test.protocol: MX-1 cell line proliferation assay
- Format: cell-based
- condition.label: Homo sapiens, MX1, 72 h, MX-1 cells, 3-day proliferation assay, Cell Titer Glo; read-out: Cellular proliferation EC50
pEC50: −log10 of the molar value.
Record Criterion met whenever pEC50 is at 7 or higher; record Criterion not met when lower.

                                   compound             system_under_test           category
0  Cn1cc(-c2cc(CS(=O)(=O)N3CCOCC3)ccc2Oc2ccc(F)cc2F)c2cc[nH]c(=O)c21  breast cancer cell line MX-1      Criterion met
1  CCS(=O)(=O)C(C)c1ccc(Oc2ccc(F)cc2F)c(-c2cn(C)c3c(=O)[nH]ccc23)c1 (single isomer, unassigned) [Example 56]  breast cancer cell line MX-1      Criterion met
2  CN1CCN(Cc2ccc(Oc3ccc(F)cc3F)c(-c3cn(C)c4c(=O)[nH]ccc34)c2)CC1  breast cancer cell line MX-1  Criterion not met
3  CCS(=O)(=O)Nc1cnc(Oc2ccc(F)cc2F)c(-c2cn(C)c3c(=O)[nH]ccc23)c1  breast cancer cell line MX-1  Criterion not met
4  CCS(=O)(=O)Cc1ccc(Oc2ccc(F)cc2F)c(-c2cn(C)c3c(=O)[nH]ccc23)c1  breast cancer cell line MX-1      Criterion met
5  Cn1cc(-c2cc(S(C)(=O)=O)ccc2Oc2ccc(F)cc2F)c2c(Cl)c[nH]c(=O)c21  breast cancer cell line MX-1  Criterion not met
6  Cn1cc(-c2cc(S(C)(=O)=O)ccc2Oc2ccc3ccccc3c2)c2cc[nH]c(=O)c21  breast cancer cell line MX-1  Criterion not met

q: Is pEC50 at least 7? Consider Cn1cc(-c2cc(NCc3ccc(OCc4ccccc4)cc3)ccc2Oc2ccc(F)cc2F)c2cc[nH]c(=O)c21
a: Criterion not met
